Where do these numbers come from? They come from the supplement of paper PMC10567573.

B1: TIA1 (parent)
chain: TYECRCIGEEKEMWNFGEKYARF

variants of: B1; test: protein stability index of a GFP-peptide fusion (GPS, HEK-293T) (PSI 1-6); higher = more stable; conditions: c terminus: native;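 further: lentivirally expressed fusions sorted by FACS into six bins by GFP to DsRed ratio, PSI derived from sequencing read proportions per bin multiplied by bin number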
The reader will find reported protein stability index values listed item by item below.
reported.property: protein stability index

{"columns": ["item.sequence", "reported.property", "reported"],
 "data": [
  ["TYECRCIGEEKHMWNFGEKYARF [E12H]", "protein stability index", 2.03],
  ["TYECRCIGEEKEMWIFGEKYARF [N15I]", "protein stability index", 2.02],
  ["TYNCRCIGEEKEMWNFGEKYARF [E3N]", "protein stability index", 1.98],
  ["TYECRCIGEEKESWNFGEKYARF [M13S]", "protein stability index", 1.98],
  ["TYECRCIGEEPEMWNFGEKYARF [K11P]", "protein stability index", 2.02],
  ["TYECRCIGEEKEMWNFGEKYQRF [A21Q]", "protein stability index", 2.04],
  ["TYECRCIGEEKEMWNFVEKYARF [G17V]", "protein stability index", 2.03]
]}
